Catalogue of self-cleavage readings, one per entry.
B1: CPEB3 Ribozyme (parent)
chain: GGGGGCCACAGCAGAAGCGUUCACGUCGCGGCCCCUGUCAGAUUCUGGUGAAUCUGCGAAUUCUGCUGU

Variants of: B1
Experiment: self-cleavage, relative activity (ratio to wild type); higher = more cleavage; co-transcriptional
Reply with the value as a number alone.

Please review the following examples before continuing.
Lookup: If you can, please state the reported self-cleavage value of GGGGGCCACAGCAGAAGCGUUCACGUCGCGGCCCCUGUCAGAUUCUGGUGAACCUGCGUAUUCUGCUGU [U53C A59U] .
Found: 0.618

Lookup: If you can, please state the reported self-cleavage value of GGGGGCCACAGCAGAAGCGUACACGUCGGGGCCCCUGUCAGAUUCUGGUGAAUCUGCGAAUUCUGCUGU [U21A C29G] .
Found: 0.445

Lookup: If you can, please state the reported self-cleavage value of GGGGGCAACAGCAGAAGCGUUCACGUCGCGGCCCCUGUCAGAUUCUGAUGAAUCUGCGAAUUCUGCUGU [C7A G48A] .
Found: 0.67

Lookup: If you can, please state the reported self-cleavage value of GGGGGCCACAGCAGAAGCGUUCACGUCGCGGCCCCUGUCCGAUUCUGGCGAAUCUGCGAAUUCUGCUGU [A40C U49C] .
Found: 0.584

Lookup: If you can, please state the reported self-cleavage value of GGGGGCCACAGCAGAAGCGUUCACGUCGCGGCCACUGUCAGAUUCUGGUGAAUCUGCGAAUUCUGCUAU [C34A G68A] .
Found: 0.935

Lookup: If you can, please state the reported self-cleavage value of GGGGGCCACAGCAGAAGCGGUCACGUCGCGGCCCCUGUCAGAAUCUGGUGAAUCUGCGAAUUCUGCUGU [U20G U43A] .
Found: 0.0656

Now take the following variant into account.
Lookup: If you can, please state the reported self-cleavage value of GGGGGCCACAGCAGAAGCGUUCACGUCGCGGCCCCUGUCAGAUUCUGGUGAAUCUGCGAAUACUGCCGU [U62A U67C] .
Found: 0.908
